- SUBJECT OF TEST: LNX1_1, Q8TBB1
- Sequence (Q8TBB1 261-371): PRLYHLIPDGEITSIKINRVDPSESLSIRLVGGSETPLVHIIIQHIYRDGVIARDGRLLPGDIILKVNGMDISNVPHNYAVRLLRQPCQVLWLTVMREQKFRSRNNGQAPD
- PROTOCOL TEXT: holdup assay
- Parameters: key: below the threshold = too weak to quantify, mostly under pKd 3.1 to 4
- PROTOCOL CONDITIONS: plain residues with an end cap or a label only (N-terminal biotin on a linker: ttds)
Give pKd for every item shown.
Give bare numbers.

>>> recorded_number("STLTIFETAL [ABCC4, O15439]")
3.59

Let us examine a further case.
// query pKd value for entry QSARYRDTEL [TJP2, Q9UDY2]
3.58
